Cited source for all entries: paper PMC10383195

Molecular target: T1, Kv1.1 (K-Kv1.1, mKate2-tagged) (Homo sapiens, UniProt Q09470)
T1 chain: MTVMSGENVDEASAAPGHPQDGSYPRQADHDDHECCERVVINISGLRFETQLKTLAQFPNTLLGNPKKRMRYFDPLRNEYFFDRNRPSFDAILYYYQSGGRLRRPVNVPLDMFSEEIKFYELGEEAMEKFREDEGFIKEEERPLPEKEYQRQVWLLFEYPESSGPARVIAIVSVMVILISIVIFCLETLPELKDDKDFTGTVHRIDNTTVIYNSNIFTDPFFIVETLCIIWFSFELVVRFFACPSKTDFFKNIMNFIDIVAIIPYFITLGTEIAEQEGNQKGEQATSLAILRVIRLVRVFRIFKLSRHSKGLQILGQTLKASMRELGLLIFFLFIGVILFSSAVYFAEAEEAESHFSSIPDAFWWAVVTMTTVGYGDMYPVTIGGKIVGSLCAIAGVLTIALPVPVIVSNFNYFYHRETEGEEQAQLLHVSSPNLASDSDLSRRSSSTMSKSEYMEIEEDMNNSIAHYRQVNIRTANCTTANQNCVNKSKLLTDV
Test: confocal fluorescence binding on Neuro2a cells, Na+ buffer (closed state)
measured property: Kd (nM)
# value in nM; strip the unit string

Exercise: Look up Kd: TVIDVKCTSPKQCLPPCKAQFGIRAGAKCMNGKCKCYPH [Atto 488-hongotoxin 1 (A-HgTx)]
Solution: 0.9
